# TARGET OR TEST SYSTEM: KRAS G12C (Homo sapiens, UniProt P01116+P62937, G12C)
# Sequence (P01116 1-169 isoform P01116-2 G12C): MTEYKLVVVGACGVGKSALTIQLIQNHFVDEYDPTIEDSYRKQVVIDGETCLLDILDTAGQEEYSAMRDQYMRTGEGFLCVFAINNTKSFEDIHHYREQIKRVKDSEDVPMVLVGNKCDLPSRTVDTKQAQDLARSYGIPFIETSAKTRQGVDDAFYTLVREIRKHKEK
# Sequence (P62937 whole entry): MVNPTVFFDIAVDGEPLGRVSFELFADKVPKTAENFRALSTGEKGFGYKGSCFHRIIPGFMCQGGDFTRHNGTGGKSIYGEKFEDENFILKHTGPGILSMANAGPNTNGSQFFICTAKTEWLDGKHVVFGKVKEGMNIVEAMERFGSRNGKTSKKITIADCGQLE
# PROTOCOL NOTES: Disruption of BRAF RBD interaction with Ras (FRET / MOA assay, with Cyclophilin A)
# Assay type: biochemical
# TEST CONTEXT: KRAS G12C; read-out: KRAS G12C FRET data IC50
pIC50: −log10 of the molar value.
PROPERTY MEASURED: pIC50

Any idea what pIC50 was measured for `C=CC(=O)N1CC2(CCN([C@H](C(=O)N[C@H]3Cc4cc(O)cc(c4)-c4ccc5c(c4)c(c(-c4ccccc4CCOC)n5CC)CC(C)(C)COC(=O)[C@@H]4CCCN(N4)C3=O)C(C)C)C2=O)C1` ? 7.00 to 8.00

Record: `C=CC(=O)N1C[C@H](C)[C@H](C(=O)N(C)[C@H](C(=O)N[C@H]2Cc3cc(O)cc(c3)-c3ccc4c(c3)c(c(-c3ccccc3CCOC)n4CC)CC(C)(C)COC(=O)[C@@H]3CCCN(N3)C2=O)C(C)C)C1` 6.00 to 7.00

Lookup `C=CC(=O)N1CC[C@H](C(=O)N(C)[C@H](C(=O)N[C@H]2Cc3cc(O)cc(c3)-c3cc(F)c4c(c3)c(c(-c3ccccc3CCOC)n4CC)CC(C)(C)COC(=O)[C@@H]3CCCN(N3)C2=O)C(C)C)C1` 6.00 to 7.00

Follow-up entry: `CCn1c(-c2cccnc2[C@H](C)OC)c2c3cc(ccc31)N1CCC[C@@H](C[C@H](NC(=O)[C@H](C(C)C)N(C)C(=O)C3(F)CCN(C(=O)C#CC(C)(C)N(C)C)CC3)C(=O)N3CCCC(N3)C(=O)OCC(C)(C)C2)C1` 7.00 to 8.00

Would you mind doing C=CC(=O)N1CCC2(C1)CN(C(=O)N(C)[C@H](C(=O)N[C@H]1Cc3nc(cs3)-c3ccc4c(c3)c(c(-c3cccnc3[C@H](C)OC)n4CC(F)(F)F)CC(C)(C)COC(=O)C3CCCN(N3)C1=O)C(C)C)C2 (stereo partly drawn) as well? 7.00 to 8.00

Now give it for `C=CC(=O)N1CC[C@H](C(=O)N(C)[C@H](C(=O)N[C@H]2Cc3cc(O)cc(c3)-c3ccc4c(c3)c(c(-c3ccc(CN5CCCC5)cc3)n4CC)CC(C)(C)COC(=O)[C@@H]3CCCN(N3)C2=O)C(C)C)C1` too. 6.00 to 7.00

Entry to check: C=CC(=O)N1CC[C@H](C(=O)N(C)[C@H](C(=O)N[C@H]2Cc3nsc(n3)-c3ccc4c(c3)c(c(-c3cccnc3[C@H](C)OC)n4CC)CC(C)(C)COC(=O)[C@@H]3CCCN(N3)C2=O)C(C)C)C1 (atropisomer, axis not shown) 6.00 to 7.00

// query: `C=CC(=O)N1CC[C@H](C(=O)N(C)[C@H](C(=O)N[C@H]2Cc3cc(O)cc(c3)-c3ccc4c(c3)c(c(-c3cccnc3N3CC(OC)C3)n4CC)CC(C)(C)COC(=O)[C@@H]3CCCN(N3)C2=O)C(C)C)C1` 6.00 to 7.00

Then `C=CC(=O)N1CC[C@H](C(=O)N(C)[C@H](C(=O)N[C@H]2Cc3cc(O)cc(c3)-c3ccc4c(c3)c(c(-c3cccnc3)n4C3CC3)CC(C)(C)COC(=O)[C@@H]3CCCN(N3)C2=O)C(C)C)C1` ? 6.00 to 7.00
